test: Inhibition of R1881-stimulated AR transcription driven human LNCaP cells proliferation preincubated for 1 hr followed by R1881 addition and measured after 4 days by Alamar blue assay
parameter: pIC50
The quantity pIC50 is defined as the negative base-10 logarithm of the molar concentration.

Item under review: CCC(=O)N[C@H](C[C@H](C)C(Cl)(Cl)Cl)C(=O)N1C(=O)C=C(OC)[C@@H]1C[C@H](C)C(Cl)Cl . Reported pIC50?
4.85

Origin of values: BindingDB's records for doi:10.1021/acs.jnatprod.0c00921
